Overview of reported percent of DMSO control GFP across a group of compounds:
Test: rapamycin-like changes in RPL19A-GFP expression – cell-based, S. cerevisiae, multiplex flow cytometry, primary screen (AID 1862);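 also: lower values mimic rapamycin by blocking the RPL19A rise seen in DMSO cells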
Settings: S. cerevisiae RPL19A-GFP strain, flow cytometry fluorescence, 3 h; at 10 µM; stronger effect = lower value
Records with an inconclusive call do not appear.

compound	units.of.measure	percent of DMSO control GFP
COc1cc2nc(N3CCN(C(=O)C4CCCO4)CC3)nc(N)c2cc1OC (stereo not drawn)	%	102
CCOc1cc2c3c(c1)C(C)=CC(C)(C)N3C(=O)C2=O	%	95
O=C(Cc1ccccc1)NCC(=O)OCC(=O)c1ccccc1Cl	%	98.3
CC(=O)N1CCN(c2ccc(OC[C@H]3CO[C@](Cn4ccnc4)(c4ccc(Cl)cc4Cl)O3)cc2)CC1	%	105
CCc1nc2ccccc2n1Cc1ccc(OC)c(OC)c1	%	98.1
O=c1nc2sc3ccccc3n2c(=O)n1-c1ccc(Cl)cc1	%	105
Fc1ccc(-n2cc(CNCCc3ccccn3)c(-c3ccccc3Cl)n2)cc1	%	106
Cc1ccc(S(=O)(=O)Oc2ccccc2/C=N/N=C(N)N)cc1	%	102
N=c1c[n+](N2CCOCC2)[n-]o1	%	102
COc1ccc(CNC(=O)c2c(O)c3cccc4c3n(c2=O)CCC4)cc1	%	104
O=C(/C=C/c1ccccc1)NC(=O)c1ccccc1O	%	106
CN(C)CC/C=C1\c2ccccc2Sc2ccc(Cl)cc21	%	104
c1ccc(CNc2ncnc3nc[nH]c23)cc1	%	103
CC1(C)CC(c2csc(N)n2)CCO1 (stereo not drawn)	%	103
C1COC(NC(C2CC2)C2CC2)=N1	%	89.3
O=C1CC(c2ccc(O)cc2)Oc2cc(O)cc(O)c21 (stereo not drawn)	%	107
CC(C)(C)OC(=O)COc1cc(OCC(=O)OC(C)(C)C)c2c(=O)cc(-c3ccccc3)oc2c1	%	105
CC(=O)[C@H]1[C@H](C#N)C[C@H]2[C@@H]3CC=C4C[C@@H](O)CC[C@]4(C)[C@H]3CC[C@@]21C	%	92
CCOc1ccc(C(=O)C(C)=O)c(OCC)c1	%	101
CS(=O)(=O)NCc1ccc(C(=O)NCc2ccccc2)cc1	%	98.4
O=C(COc1cc(O)c2c(=O)c3ccccc3oc2c1)OCc1ccccc1	%	101
O=C(CNC(=O)OCc1ccccc1)Oc1cc2oc(=O)cc(-c3ccccc3)c2cc1Cl	%	97.5
CCCCCC(O)c1cccc(OCc2ccc3ccccc3n2)c1 (stereo not drawn)	%	101
COC(=O)c1ccc(-c2ncc(-c3cccc4ccccc34)o2)cc1	%	98.2
O=C1NC(=O)C(c2ccccc2)(c2ccccc2)N1	%	102
CC(=O)Nc1ccc2[nH]c(C)c(CC=C(Cl)Cl)c(=O)c2c1	%	105
CCOC(=O)C1C(=O)OC(C)(C)C1C(C)C(=O)c1ccc(C)cc1 (stereo not drawn)	%	100
CC(=O)Oc1ccc(C(c2ccc(OC(C)=O)cc2)c2ccccn2)cc1	%	98.9
CC(=O)N(CCC(Cc1ccccc1)c1ccc2c(c1)OCO2)Cc1ccc(Cl)cc1 (stereo not drawn)	%	93.9
CC(C)OC(=O)c1ccc(NC(=O)c2cncc(Br)c2)cc1	%	103
COc1cc2c(cc1OC)/C(=C/c1ccc(Cl)cc1)C(=O)OC2	%	87.8
N/C(=N\OC(=O)c1ccc(Br)o1)c1ccccn1	%	101
C#CCOc1ccc2c(C)cc(=O)oc2c1	%	105
